Plant response rating: recorded values
# Test system: field violet (Viola arvensis)
# Method: Test D pre-/postemergence controlled growth environment herbicide test
# Format: in vivo
# Condition label: Preemergence, 31 g ai/ha, scale 0 to 100
Assay metric: Plant response rating

Molecule	Value measured
Cc1cc(=O)n(-c2ccc(F)cc2)nc1Oc1ccnc(C(F)(F)F)c1 [Compound 14]	95
Cc1cc(=O)n(-c2ccc(C(F)(F)F)cc2)nc1Cc1ccnc(C(F)(F)F)c1 [Compound 2]	60
Cc1cc(=O)n(-c2ccc(F)cc2)nc1Cc1ccnc(C(F)(F)F)c1 [Compound 1]	60
COc1cc(=O)n(-c2ccc(F)cc2)nc1Cc1ccnc(C(F)(F)F)c1 [Compound 17]	75
